B1: minF1; a variant is named by its letters at N, in order (parent)
chain: GAGACCGCAACTGAAAAGTTGTTNNNNAANNNNGGNTNNATTTCTGCACGTAGAAGCAAAAGGC

variants of: B1; assay: fraction ligated after 30 min (ligated reads / total reads); higher = more ligase activity; conditions: with F1*subA RNA substrate (template-directed ligation), 42 °C
Note to self: class labels come from recorded fraction ligated, ranges listed here: lower band = under 0.003, central band = from 0.003 up to 0.004, upper band = 0.004 and over

>  <variant>
ACAGATGGGTT G34A T37G A40G

>  <label-value>
lower band

$$$$
>  <variant>
ACGAGGAGTGA

>  <label-value>
lower band

$$$$
>  <variant>
ACAAGGATTGA

>  <label-value>
central band

$$$$
>  <variant>
ATCGAATGTGA

>  <label-value>
upper band

$$$$
>  <variant>
TGAAGATGTGA T23A A28T A29G

>  <label-value>
upper band

$$$$
>  <variant>
CAGAGGATGTG T23A A29T

>  <label-value>
upper band

$$$$
>  <variant>
ATCAAATATGA A28G

>  <label-value>
lower band

$$$$
>  <variant>
TCAGATATGTA T23A

>  <label-value>
lower band

$$$$
>  <variant>
CAGAGGTGTGA T23A A29T

>  <label-value>
lower band

$$$$
>  <variant>
TCAAGGATTGA T23A A29T

>  <label-value>
upper band

$$$$
>  <variant>
ACGATGATGTA

>  <label-value>
lower band

$$$$
>  <variant>
ATCAATGAGTG A28G

>  <label-value>
upper band

$$$$
>  <variant>
AAGATGGTGTG

>  <label-value>
central band

$$$$
>  <variant>
ATCAGGATTGA

>  <label-value>
central band

$$$$
>  <variant>
ATAGATGAGTT G34T T37G A40G

>  <label-value>
lower band

$$$$
>  <variant>
TCAGATGGGTA T23A G34T

>  <label-value>
central band

$$$$
>  <variant>
AGAAGGATGTA T23C A29T

>  <label-value>
upper band

$$$$
>  <variant>
ATCAGGATGTG A28G

>  <label-value>
upper band

$$$$
>  <variant>
TCGAGATGTGA T23A A29G

>  <label-value>
upper band

$$$$
>  <variant>
TCAGTGGAGTG T23A G34T

>  <label-value>
upper band

$$$$
